Where do the numbers come from? From paper PMC2746433.

Item-by-item account of pIC50
system name: ExoI/SSB/ssDNA ternary complex (Escherichia coli, UniProt P04995)
Sequence (P04995 whole entry, one chain of several): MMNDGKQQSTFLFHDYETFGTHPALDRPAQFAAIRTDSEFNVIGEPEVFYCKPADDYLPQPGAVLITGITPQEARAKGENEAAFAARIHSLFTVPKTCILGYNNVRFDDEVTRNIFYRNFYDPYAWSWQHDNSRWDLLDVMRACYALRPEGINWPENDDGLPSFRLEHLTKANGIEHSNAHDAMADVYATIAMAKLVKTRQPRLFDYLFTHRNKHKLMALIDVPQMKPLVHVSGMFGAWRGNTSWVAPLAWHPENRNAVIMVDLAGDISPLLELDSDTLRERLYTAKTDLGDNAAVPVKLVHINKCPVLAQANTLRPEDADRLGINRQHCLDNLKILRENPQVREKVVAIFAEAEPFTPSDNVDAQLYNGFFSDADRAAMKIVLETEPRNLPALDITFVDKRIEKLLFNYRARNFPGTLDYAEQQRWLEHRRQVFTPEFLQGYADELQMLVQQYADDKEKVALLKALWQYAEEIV
protocol summary: Exonuclease assay: inhibition of SSB-stimulated ExoI nuclease activity
Assay type: biochemical, E. coli
pIC50: −log10 of the molar value. No end group written: not given here.
parameter: pIC50

1. WMDFDDDIP [WMDFDDDIP]	~4.40
2. WDDIPF [WDDIPF]	~4.40
3. WMDFDDDIPY [WMDFDDDIPY]	~5.00
4. WMAFDDDIPF [WMAFDDDIPF]	~6.00
5. WMDFDDAIPF [WMDFDDAIPF]	~6.00
6. WDFDDDIPF [WDFDDDIPF]	~6.00
7. WMDFDADIPF [WMDFDADIPF]	~6.00
8. WDIPF [WDIPF, Trp-Asp-Ile-Pro-Phe]	< 4.00
9. WMDFDDD [WMDFDDD]	~4.40
10. WMAFAAAIPF [WMAFAAAIPF]	~4.70
11. WMDFDDDISF [WMDFDDDISF]	~5.00
12. WMDFADDIPF [WMDFADDIPF]	~6.00
13. WFDDDIPF [WFDDDIPF]	~5.00
14. WDDDIPF [WDDDIPF]	~4.40
15. WMDFDDDI [WMDFDDDI]	~4.40
16. WMDFDDDIPF [WMDFDDDIPF, Trp-Met-Asp-Phe-Asp-Asp-Asp-Ile-Pro-Phe]	~6.00
